The values you see were collected from the supplement of paper PMC10065799.

# Tested on: AncSZ;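 note: 11-residue human phosphosite peptides and single-mutation variants displayed on the E. coli surface, counted by deep sequencing, each peptide's frequency after selection divided by its frequency in the unselected input library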;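 note: frequency after pTyr selection over input frequency; kinase dosed for 20-30% of maximal phosphorylation in three min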
# ASSAY_NAME: phosphorylation enrichment, bacterial display (enrichment ratio); higher = better substrate or ligand; peptides without Tyr show the background
Lab note: class by phosphorylation enrichment, see low-valued = under 0.7, mid-valued = from 0.7 up to 1, high-valued = 1 and over

Please review the following examples before continuing.
RESIDUES	CLASS_NAME
DLRTGYSVPFG [TGM1_Y370_Y365D_YF]	low-valued
IGRGSYAKVLL [PRKCZ_Y263]	low-valued
EVVGRYSVHNA [MLH1_Y183]	low-valued

Task: Hey, which category is TFVVLYDAELT [ERCC4_Y581_R576T_YF] in, do you know?
Output: high-valued

Task: Hey, which category is GKTQQYDCKWY [BCR_Y751] in, do you know?
Output: mid-valued

Task: Hey, which category is HQKKPYCHAHN [NRAP_Y53] in, do you know?
Output: high-valued

Task: Hey, which category is LSIQCYLRASD [HMGCS2_Y262_L266S] in, do you know?
Output: high-valued

Task: Hey, which category is KDFTKYVAFIE [KDM4B_Y31_N29T_YF] in, do you know?
Output: mid-valued

Task: Hey, which category is LLKAGYQGVLR [TTPA_Y100_H101Q] in, do you know?
Output: low-valued

Task: Hey, which category is AAAAVYTFLPD [MYORG_Y36_M35V] in, do you know?
Output: high-valued

Task: Hey, which category is CLSHCYFSQIR [MCM3AP_Y873_L870S] in, do you know?
Output: mid-valued

Task: Hey, which category is GLCSYYETSKM [MAGED2_Y449_R446C] in, do you know?
Output: high-valued

Task: Hey, which category is VAVVDYVEPSP [TXNRD2_Y70] in, do you know?
Output: high-valued

Task: Hey, which category is NAPNSYGRRPT [CDKN2A_Y44_I49T] in, do you know?
Output: mid-valued

Task: Hey, which category is SPYAVYRFFTF [RPGRIP1_Y826] in, do you know?
Output: high-valued

Task: Hey, which category is QDKDLYPCPGT [RLF_Y671_R668K] in, do you know?
Output: high-valued

Task: Hey, which category is SSDKVCAHQMV [MLH1_Y379_Y379C] in, do you know?
Output: low-valued

Task: Hey, which category is HSRTRYERNIE [F2_Y434] in, do you know?
Output: high-valued

Task: Hey, which category is AGREIYESEKC [TTN_Y4424_D4427E] in, do you know?
Output: mid-valued
